Below, each entry is listed alongside its reported IC50, whole blood mm2.
- assay target: T1, human IL-33 (mm2) (human, UniProt O95760 112-270)
- T1 chain: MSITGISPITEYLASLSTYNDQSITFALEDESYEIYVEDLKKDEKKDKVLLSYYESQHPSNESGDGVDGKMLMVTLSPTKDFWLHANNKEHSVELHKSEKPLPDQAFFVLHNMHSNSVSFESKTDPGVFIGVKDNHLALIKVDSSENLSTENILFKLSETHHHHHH
- procedure details: cell-based or functional assay
Please append the unit to your numeric answer.

The value of IC50, whole blood mm2 measured for the binder IL33-168 (antibody, human IgG1, kappa, V domains shown) VH: EVQLVESGGGLVQPGGSLRLSCAASGFTFSSYWMYWVRQAPGKGLEWVASITPNAGEDYYPESVKGRFTISRDNAKNSLYLQMNSLRAEDTAVYYCARGHYYYTSYSLGYWGQGTLVTVSS VL: DIQMTQSPSSLSASVGDRVTITCKASQNINKHLDWYQQKPGKAPKLLIYFTNNLQTGVPSRFSGSGSGTDFTLTISSLQPEDFATYYCFQYNNGWTFGGGTKVEIKR turned out to be 14 pM

Continuing:
Lab book: IC50, whole blood mm2 of IL33-155 (antibody, human IgG1, kappa, V domains shown) VH: EVQLVESGGGLVQPGGSLRLSCAASGFTFSSYWMYWVRQAPGKGLEWVAAITPNGGEDYYPDSVKGRFTISRDNAKNSLYLQMNSLRAEDTAVYYCARGHYYYTSYSLGYWGQGTLVTVSS VL: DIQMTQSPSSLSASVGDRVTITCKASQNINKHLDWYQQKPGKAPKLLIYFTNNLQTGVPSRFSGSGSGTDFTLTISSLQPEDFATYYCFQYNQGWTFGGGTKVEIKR noted as 25 pM
